# Stability (T1/2 (h)) per entry
# Target System: HLA-A24.02 (human)
# Experiment Summary: pMHC-I dissociation half-life, 125I-b2m
# Conditions: remark: other sources report otherwise
Measured Property: Stability (T1/2 (h))

Binder: MNWRPILTI
Meas Value: 0.2

Binder: WMTETLFDI
Meas Value: 0

Binder: SMNRRPILTI
Meas Value: 0

Binder: CMGGMNWRPI
Meas Value: 0

Binder: TQLARFFPI
Meas Value: 0
